molecular target: human OX2R (Homo sapiens); construct: expressed in transfected cells; host or cells: CHO (Chinese hamster ovary) cells, line CHOOX2R, co-expressing NFAT-luciferase; test: Agonist activity against OX2R: intracellular calcium (Fura-2AM, FDSS7000) in CHOOX2R cells; assay type: cell-based; settings: 1.0 μM test compound; relative to orexin-A as full agonist (100%)
measurement.label: Response (%) OX2R

Completed entries (count: 4):
INSERT INTO measurements (molecule, val) VALUES
  ('COc1ccc(-c2cccc(C(=O)N(C)C)c2)cc1S(=O)(=O)Nc1cccc(NC(=O)Nc2cccc(Br)c2)c1 [Example 50]', 94),
  ('COc1ccc(-c2cccc(C(=O)N(C)C)c2)cc1S(=O)(=O)Nc1cccc(NC(=N)Nc2ccccc2)c1 [Example 77]', 51),
  ('COc1ccc(-c2cccc(C(=O)N(C)C)c2)cc1S(=O)(=O)Nc1cccc(NCc2cccc(C)c2)c1 [Example 25]', 88),
  ('COc1ccc(C(=O)Nc2cccc(NS(=O)(=O)c3cc(-c4cccc(C(=O)N(C)C)c4)ccc3OC)c2)cc1 [Example 19]', 10);

A = COc1ccc(-c2cccc(C(=O)N(C)C)c2)cc1S(=O)(=O)Nc1cccc(NC(=O)Nc2cccc(N(C)C)c2)c1 [Example 40]
B = COc1ccc(-c2cccc(C(=O)N(C)C)c2)cc1S(=O)(=O)Nc1cccc(NC(=O)c2ccc(N(C)C)cc2)c1 [Example 8]
Prompt: Could you tell me which of A and B has the lower Response (%) OX2R reading? Pick one and reply with its label.
Completion: B

###

biological target: human OX1R (Homo sapiens); construct: expressed in transfected cells; host or cells: CHO (Chinese hamster ovary) cells, line CHOOX1R, co-expressing NFAT-luciferase; assay: Agonist activity against OX1R: intracellular calcium (Fura-2AM, FDSS7000) in CHOOX1R cells; type: cell-based; conditions: test compound 1.0 μM; relative to orexin-A as full agonist (100%)
measurement.label: Response (%) OX1R

Worked set:
INSERT INTO measurements (molecule, measurement_label, val) VALUES
  ('COc1ccc(-c2cccc(C(=O)N(C)C)c2)cc1S(=O)(=O)Nc1cccc(NC(=O)Nc2cccc(N(C)C)c2)n1', 'Response (%) OX1R', '7%'),
  ('CCN(Cc1cccnc1)C(=O)c1ccc(OC)c(S(=O)(=O)Nc2cccc(NC(=O)Nc3cccc(N(C)C)c3)c2)c1', 'Response (%) OX1R', '<5%');

Prompt: Note Response (%) OX1R for the compound shown: "COc1ccc(C(=O)NCc2cccnc2)cc1S(=O)(=O)Nc1cccc(NC(=O)Nc2cccc(N(C)C)c2)c1"
Completion: <5%

Prompt: Give the reported Response (%) OX1R for this compound. "COc1ccc(-c2cccc(C(=O)N(C)C)c2)cc1S(=O)(=O)Nc1cccc(N2CCCN(c3cccc(N(C)C)c3)C2=O)c1"
Completion: 13%

Prompt: Answer with the recorded Response (%) OX1R of "COc1ccc(-c2cccc(C(=O)N(C)C)c2)cc1S(=O)(=O)Nc1cccc(Nc2c(Nc3ccc(C)cc3)c(=O)c2=O)c1" only.
Completion: <5%

Prompt: Provide only the value of recorded Response (%) OX1R for "COc1ccc(-c2cccc(C(=O)N(C)C)c2)cc1S(=O)(=O)Nc1cccc(N2CCN(c3cccc(N(C)C)c3)C2=O)c1"
Completion: <5%

Prompt: Give reported Response (%) OX1R value for "COc1ccc(-c2cccc(C(=O)N(C)C)c2)cc1S(=O)(=O)Nc1cccc(NS(=O)(=O)N(C)C)c1"
Completion: <5%

Prompt: State its Response (%) OX1R for this compound: "COc1ccc(-c2cccc(C(=O)N(C)C)c2)cc1S(=O)(=O)Nc1cccc(NS(=O)(=O)c2cccc(Br)c2)c1"
Completion: <5%

###

Listing of recorded Emax at 1 µM by entry.
Target: human OX1R (Homo sapiens, UniProt O43613)
Construct: expressed in transfected cells; host or cells: CHO (Chinese hamster ovary) cells, line CHOOX1R, co-expressing NFAT-luciferase
Sequence (O43613 1-425): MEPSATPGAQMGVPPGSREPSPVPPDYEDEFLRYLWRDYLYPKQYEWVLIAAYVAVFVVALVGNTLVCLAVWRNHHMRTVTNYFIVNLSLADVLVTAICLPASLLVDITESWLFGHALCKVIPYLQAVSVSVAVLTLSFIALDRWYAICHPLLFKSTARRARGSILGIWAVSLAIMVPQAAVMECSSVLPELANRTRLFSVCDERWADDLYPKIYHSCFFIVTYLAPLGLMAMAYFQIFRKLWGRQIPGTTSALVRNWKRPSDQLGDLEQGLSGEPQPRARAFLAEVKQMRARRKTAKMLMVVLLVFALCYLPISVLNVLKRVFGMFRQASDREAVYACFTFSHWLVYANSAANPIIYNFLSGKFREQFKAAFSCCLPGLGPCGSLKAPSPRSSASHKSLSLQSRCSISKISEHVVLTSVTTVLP
Experiment: Agonist activity against OX1R: intracellular calcium (Fura-2AM, FDSS7000) in CHOOX1R cells
Format: cell-based
Details: read-out: Response (%) OX1R

Answered cases to consult:
INSERT INTO results (molecule, val) VALUES
  ('COc1ccc(-c2cccc(C(=O)N(C)C)c2)cc1S(=O)(=O)Nc1cccc(Nc2ccccc2)c1', '< 5%'),
  ('COc1ccc(-c2cccc(C(=O)N(C)C)c2)cc1S(=O)(=O)Nc1cccc(N(C)C(=O)Nc2cccc(N(C)C)c2)c1', '< 5%');

Proceed to the following item.
Prompt: Please give measured Emax at 1 µM of the following entry: "COc1ccc(-c2cccc(C(=O)N(C)C)c2)cc1S(=O)(=O)Nc1cccc(N2CCN(c3ccccc3)C2=O)c1"
Completion: < 5%

###

target: human OX2R (Homo sapiens, UniProt O43614); construct: expressed in transfected cells; host or cells: CHO (Chinese hamster ovary) cells, line CHOOX2R, co-expressing NFAT-luciferase; experiment: Agonist activity against OX2R: intracellular calcium (Fura-2AM, FDSS7000) in CHOOX2R cells; type: cell-based; conditions: 0.1 μM test compound; relative to orexin-A as full agonist (100%)
The following compounds are shown together with reported Response (%) OX2R values.

INSERT INTO results (molecule, val) VALUES
  ('COc1ccc(-c2cccc(C(=O)N(C)C)c2)cc1S(=O)(=O)Nc1cccc(NCc2ccccc2C)c1', '<5%'),
  ('COc1ccc(-c2cccc(C(=O)N(C)C)c2)cc1S(=O)(=O)Nc1cccc(Nc2cccc(C(F)(F)F)c2)c1', '<5%');

Please find the next compound below.
Prompt: Please indicate Response (%) OX2R recorded for "COc1ccc(-c2cccc(C(=O)N(C)C)c2)cc1S(=O)(=O)Nc1cccc(NC(=O)Nc2ccc(NC(=N)NC(=O)OC(C)(C)C)cc2)c1"
Completion: <5%

###

Molecular target: human OX2R (Homo sapiens, UniProt O43614)
Construct: expressed in transfected cells; host or cells: CHO (Chinese hamster ovary) cells, line CHOOX2R, co-expressing NFAT-luciferase
Sequence (O43614 1-444): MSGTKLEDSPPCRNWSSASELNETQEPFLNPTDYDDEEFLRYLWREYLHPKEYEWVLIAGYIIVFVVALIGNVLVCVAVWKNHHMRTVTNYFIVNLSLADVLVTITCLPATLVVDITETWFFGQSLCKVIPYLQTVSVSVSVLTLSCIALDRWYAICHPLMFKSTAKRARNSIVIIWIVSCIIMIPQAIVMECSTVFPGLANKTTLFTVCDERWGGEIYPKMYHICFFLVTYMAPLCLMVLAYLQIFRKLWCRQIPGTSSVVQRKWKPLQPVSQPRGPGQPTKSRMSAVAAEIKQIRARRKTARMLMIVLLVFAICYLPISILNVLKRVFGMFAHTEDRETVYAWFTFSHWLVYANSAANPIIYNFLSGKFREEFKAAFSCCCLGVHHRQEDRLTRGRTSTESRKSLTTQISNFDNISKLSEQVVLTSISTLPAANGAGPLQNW
Experiment: Agonist activity against OX2R: intracellular calcium (Fura-2AM, FDSS7000) in CHOOX2R cells
Type: cell-based
Conditions: test compound 10 μM; relative to orexin-A as full agonist (100%)
measurement.label: Response (%) OX2R

INSERT INTO assay_data (compound, system_under_test, measurement_label, val) VALUES
  ('CN(C)C(=O)c1cccc(-c2ccc(Cl)c(S(=O)(=O)Nc3cccc(NC(=O)Nc4cccc(N(C)C)c4)c3)c2)c1 [Example 118]', 'human OX2R (Homo sapiens, UniProt O43614)', 'Response (%) OX2R', 71),
  ('COc1ccc(C(=O)NCCCNC(=O)OC(C)(C)C)cc1S(=O)(=O)Nc1cccc(NC(=O)Nc2ccccc2N(C)C)c1 [Example 112]', 'human OX2R (Homo sapiens, UniProt O43614)', 'Response (%) OX2R', 69),
  ('CNc1cccc(NS(=O)(=O)c2cc(-c3cccc(C(=O)N(C)C)c3)ccc2OC)c1 [Example 95]', 'human OX2R (Homo sapiens, UniProt O43614)', 'Response (%) OX2R', 68);
